biological target: T1, Mouse FGFR2b (Mus musculus, UniProt P21803); experiment: FACS binding on Expi293 cells, mouse FGFR2b (Example 10); settings: Expi293 cells overexpressing mouse FGFR2b
T1 construct: expressed in transfected cells; host or cells: Expi293
T1 sequence (P21803 22-707 isoform P21803-2 limits assumed): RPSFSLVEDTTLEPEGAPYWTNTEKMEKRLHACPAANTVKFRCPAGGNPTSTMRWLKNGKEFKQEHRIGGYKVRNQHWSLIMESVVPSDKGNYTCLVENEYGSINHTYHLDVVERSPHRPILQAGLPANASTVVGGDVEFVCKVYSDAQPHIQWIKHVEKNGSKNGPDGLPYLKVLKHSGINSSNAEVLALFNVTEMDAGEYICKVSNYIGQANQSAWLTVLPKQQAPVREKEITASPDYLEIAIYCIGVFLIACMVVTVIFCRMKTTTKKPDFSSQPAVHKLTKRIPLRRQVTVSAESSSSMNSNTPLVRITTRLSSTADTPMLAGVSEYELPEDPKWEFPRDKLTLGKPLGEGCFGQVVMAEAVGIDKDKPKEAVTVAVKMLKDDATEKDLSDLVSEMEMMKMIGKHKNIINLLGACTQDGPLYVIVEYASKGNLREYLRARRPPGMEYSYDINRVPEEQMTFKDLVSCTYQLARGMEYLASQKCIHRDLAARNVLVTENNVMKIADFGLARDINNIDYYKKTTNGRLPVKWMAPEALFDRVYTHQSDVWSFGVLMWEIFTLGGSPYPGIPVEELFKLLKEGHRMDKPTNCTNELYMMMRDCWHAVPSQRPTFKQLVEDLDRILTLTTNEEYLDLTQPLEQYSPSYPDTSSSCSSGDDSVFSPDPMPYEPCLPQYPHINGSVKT
Measured attribute: pEC50
# pEC50 is unitless: minus log10 of the molar concentration; print number only

[in] Name the recorded pEC50 of the molecule listed here: BGAm1371: parental murine anti-FGFR2b antibody (parental mouse clone); VH SEQ ID NO: 32, VL SEQ ID NO: 34 (antibody, V domains shown, Synthetic: VH AA; Synthetic: VL AA) VH: QVQLKQSGAELVKPGASVKLSCTASGFNIKDTYIHWVKQRPEQGLEWIGRIDPANGNTMFASEFQGKATITAYTSSNTAYMQLSSLTSGDTAVYYCARSKIHYDYDEGFAYWGQGTLVTVSS VL: NIVLTQSPPSLAVSLGQRATVSCRASESVDDYGYSFLHWYQQKPGQPPKLLIYRASNLESGIPARFSGSGSRTDFTLTINPVETDDVATYYCQQSNQNPRTFGGGTKLEIK
[out] 8.46
